Biological target: T1, CD71 apical domain (human, UniProt P02786 189-383, limits assumed)
T1 construct: domain: apical domain
T1 sequence (P02786 189-383 limits assumed): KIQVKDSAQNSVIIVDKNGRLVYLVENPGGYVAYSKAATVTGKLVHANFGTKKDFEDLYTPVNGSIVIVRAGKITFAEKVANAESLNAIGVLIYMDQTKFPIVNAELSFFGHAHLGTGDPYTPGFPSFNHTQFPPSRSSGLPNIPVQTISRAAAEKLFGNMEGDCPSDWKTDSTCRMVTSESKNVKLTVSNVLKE
Experiment: solution ELISA screen (luminescence)
RECORDED ENDPOINT: RLU (RLU)

1. SEQ ID NO 268 (designed binder, not shown: small tags and cut ends) MLPAPKNLVVSRVTEDSARLSWTAPDAAFDSFYIAYAEPRPDGEAIYLEVPGSERSYDLTGLKPGTEYSVLIHGVKGGLLSSPLFTT
2. SEQ ID NO 205 (designed binder, not shown: small tags and cut ends) MLPAPKNLVVSRVTEDSARLSWTAPDAAFDSFFIGYLEPQPPGEAILLGVPGSERSYDLTGLKPGTEYNVTIQGVKGGFPSMPLHPLVALFTT
input: Which numeric RLU is bigger, that of 1 or that of 2 ? Indicate which entry you chose by stating its label.
output: 2
